Values from ChEMBL document CHEMBL2016519

- experiment_summary: Binding affinity to His-tagged HIV-1 integrase C56S, W131D, F185K and […] mutant by fluorescence anisotropy
- Design: species or system Human immunodeficiency virus 1
pKd: −log10 of the molar value.
quantity: pKd

>>> df
          substance  measured
0  H-WNSLKIDNLDV-OH      5.29
